Provenance of the data: patent US20160297889A1

Biological target: T1, CAPRIN-1 protein expressed on the membrane surface of human cancer cells (human, UniProt Q14444 2-709)
T1 sequence (looked up): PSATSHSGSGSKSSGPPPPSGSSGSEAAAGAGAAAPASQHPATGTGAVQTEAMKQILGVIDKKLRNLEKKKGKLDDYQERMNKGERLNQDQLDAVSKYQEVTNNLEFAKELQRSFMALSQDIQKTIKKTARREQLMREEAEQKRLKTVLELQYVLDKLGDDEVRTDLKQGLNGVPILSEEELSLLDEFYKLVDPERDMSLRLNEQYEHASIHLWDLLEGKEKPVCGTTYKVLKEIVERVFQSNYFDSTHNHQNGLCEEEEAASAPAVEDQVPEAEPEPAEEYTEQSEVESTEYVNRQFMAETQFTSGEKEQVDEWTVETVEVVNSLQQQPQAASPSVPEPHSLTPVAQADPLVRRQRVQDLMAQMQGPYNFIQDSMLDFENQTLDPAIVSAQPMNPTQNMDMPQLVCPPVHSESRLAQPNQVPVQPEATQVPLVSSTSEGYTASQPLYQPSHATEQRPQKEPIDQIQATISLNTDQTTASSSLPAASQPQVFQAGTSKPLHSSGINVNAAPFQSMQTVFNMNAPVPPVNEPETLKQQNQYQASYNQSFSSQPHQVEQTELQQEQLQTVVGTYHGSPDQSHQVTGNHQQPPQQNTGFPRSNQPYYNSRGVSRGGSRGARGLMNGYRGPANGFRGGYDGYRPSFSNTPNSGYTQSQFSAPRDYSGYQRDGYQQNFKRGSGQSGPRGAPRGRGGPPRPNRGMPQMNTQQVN
Test: cell-based or functional assay
PARAMETER MEASURED: ADCC cytotoxic activity (51Cr release) on NT/D1

Some binders with known ADCC cytotoxic activity (51Cr release) on NT/D1 results, for comparison:
[[record]]
binder = "humanized antibody #4 (antibody, V domains shown) VH: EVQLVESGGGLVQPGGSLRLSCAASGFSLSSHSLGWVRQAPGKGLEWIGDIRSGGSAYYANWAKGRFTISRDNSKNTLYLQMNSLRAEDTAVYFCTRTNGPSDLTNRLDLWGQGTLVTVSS VL: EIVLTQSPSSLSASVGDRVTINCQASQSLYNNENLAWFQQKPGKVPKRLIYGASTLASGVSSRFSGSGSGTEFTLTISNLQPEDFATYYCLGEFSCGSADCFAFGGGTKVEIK"
data_value = "≥ 30%"

[[record]]
binder = "humanized antibody #6 (antibody, V domains shown) VH: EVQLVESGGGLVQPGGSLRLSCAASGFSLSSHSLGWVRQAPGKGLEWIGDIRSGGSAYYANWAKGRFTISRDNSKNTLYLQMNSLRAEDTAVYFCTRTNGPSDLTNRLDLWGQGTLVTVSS VL: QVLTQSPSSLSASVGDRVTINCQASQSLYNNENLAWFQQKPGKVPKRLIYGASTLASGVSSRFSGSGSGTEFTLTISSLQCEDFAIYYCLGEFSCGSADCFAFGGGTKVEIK"
data_value = "≥ 37%"


What value of ADCC cytotoxic activity (51Cr release) on NT/D1 has been recorded for this entry: humanized antibody #9 (antibody, V domains shown) VH: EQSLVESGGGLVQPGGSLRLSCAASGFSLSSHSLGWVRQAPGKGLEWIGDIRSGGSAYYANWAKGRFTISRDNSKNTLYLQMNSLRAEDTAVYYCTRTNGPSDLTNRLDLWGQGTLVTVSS VL: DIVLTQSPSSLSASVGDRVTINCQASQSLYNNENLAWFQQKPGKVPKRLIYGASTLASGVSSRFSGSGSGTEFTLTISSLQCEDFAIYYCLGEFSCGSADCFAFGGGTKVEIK ≥ 25%
